experimental-system: Acetylcholinesterase (Electrophorus electricus, UniProt O42275)
Sequence (O42275 whole entry): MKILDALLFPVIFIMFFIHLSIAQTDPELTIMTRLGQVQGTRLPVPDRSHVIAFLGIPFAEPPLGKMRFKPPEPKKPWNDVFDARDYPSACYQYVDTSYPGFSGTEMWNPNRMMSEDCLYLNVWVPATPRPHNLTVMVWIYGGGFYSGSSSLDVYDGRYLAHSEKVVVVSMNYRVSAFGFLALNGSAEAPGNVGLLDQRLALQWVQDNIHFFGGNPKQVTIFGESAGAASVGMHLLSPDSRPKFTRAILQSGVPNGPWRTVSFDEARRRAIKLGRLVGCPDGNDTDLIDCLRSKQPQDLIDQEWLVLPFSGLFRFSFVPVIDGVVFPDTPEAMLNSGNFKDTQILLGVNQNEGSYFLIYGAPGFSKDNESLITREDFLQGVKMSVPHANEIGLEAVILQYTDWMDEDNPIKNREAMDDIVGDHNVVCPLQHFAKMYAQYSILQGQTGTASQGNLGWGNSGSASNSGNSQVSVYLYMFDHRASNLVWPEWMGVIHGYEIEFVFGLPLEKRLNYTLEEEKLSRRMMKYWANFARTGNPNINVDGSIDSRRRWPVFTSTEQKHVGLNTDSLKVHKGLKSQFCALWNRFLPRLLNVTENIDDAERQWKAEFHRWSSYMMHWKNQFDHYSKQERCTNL
quantity-name: IC50

> print(dat)
                                 smiles.str                       experimental.system  test.result
1  CCN(CC)CCCNc1nc(-c2cc3ccccc3[nH]2)nc2ccccc12  Acetylcholinesterase (Electrophorus electricus, UniProt O42275)      > 10 µM
2    O=c1[nH]c(-c2cc3ccccc3[nH]2)nc2ccccc12  Acetylcholinesterase (Electrophorus electricus, UniProt O42275)      > 10 µM

Then this molecule:
Exercise: Suppose we examine the molecule "CN(C)CCCNc1nc(-c2cc3ccccc3[nH]2)nc2ccccc12" ; what IC50 value has been reported?
Solution: > 10 µM

Source: BindingDB's records for doi:10.3109/14756366.2012.663363
